Please respond with reported MIC (μg/ml) at 24 hours, MRSA 1 for every item in the list.
System: MRSA
Run description: Broth microdilution MIC, Example 7 (NCL812 and analogues)
Assay type: cell-based, Staphylococcus aureus
Measurement context: MRSA 1; 24 hours; duplicate lines per compound
Experimental: Minimum inhibitory concentrations (μg/ml) were determined using the broth microdilution method recommended by the Clinical and Laboratory Standards Institute (CLSI). MIC breakpoints were determined by visual assessment and then confirmed using an ELISA plate reader, measuring absorbance levels at 600 nm. […] The purity of the isolates was closely monitored during testing by subculturing the prepared bacterial inoculum onto SBA (sheep blood agar). […]
Numbers only, in µg/mL.

[in] Read off the recorded MIC (μg/ml) at 24 hours, MRSA 1 for `Cl.N=C(NN=Cc1ccc2[nH]ccc2c1)NN=Cc1ccc2[nH]ccc2c1`
[out] 8

[in] Read off the recorded MIC (μg/ml) at 24 hours, MRSA 1 for `Cl.N=C(NN=Cc1ccc(Cl)cc1N)NN=Cc1ccc(Cl)cc1N`
[out] 2

[in] Read off the recorded MIC (μg/ml) at 24 hours, MRSA 1 for `Cl.N=C(N/N=C/c1ccc(Cl)cc1)N/N=C/c1ccc(Cl)cc1Cl`
[out] 16

State the recorded MIC (μg/ml) at 24 hours, MRSA 1 for every item in the following list.
1. CCC(=NNC(=N)NN=C(CC)c1ccc(Cl)cc1O)c1ccc(Cl)cc1O.Cl
2. C/C(=N\NC(=N)N/N=C(\C)c1ccc(Br)cc1)c1ccc(Br)cc1.Cl
3. Cl.N=C(NN=Cc1ccc(O)c(O)c1)NN=Cc1ccc(O)c(O)c1
4. COc1cc(/C=N/NC(=N)N/N=C/c2ccc(O)c(OC)c2)ccc1O.Cl
5. Cl.N=C(NN=CC1CCCCC1)NN=CC1CCCCC1

[out]
[4, 8, 64, 64, 128]
